Assay: Pharmacokinetics and absolute bioavailability in plasma after single oral or intravenous administration (Example 1)
Details: both, domestic short hair (HsdCpb: CADS), plasma, po, 1 mg/kg, AUC 0 → ∞, oral, single dose 1 mg/kg, mean; first AUC line (r5)
assay-metric: AUC(0-inf) (ng·h/mL)

INSERT INTO assay_data (compound, recorded_result) VALUES
  ('CCCc1nc2c(C)cc(-c3nc4ccccc4n3C)cc2n1Cc1ccc(-c2ccccc2C(=O)O)cc1 [telmisartan]', 150);

====

Assay: Pharmacokinetics and absolute bioavailability in plasma after single oral or intravenous administration (Example 1)
Conditions: both, domestic short hair (HsdCpb: CADS), plasma, po, 1 mg/kg, t max, oral, single dose 1 mg/kg, mean
assay-metric: t max (min)

INSERT INTO assay_data (molecule, recorded_result) VALUES
  ('CCCc1nc2c(C)cc(-c3nc4ccccc4n3C)cc2n1Cc1ccc(-c2ccccc2C(=O)O)cc1 [telmisartan]', 26.4);

====

Test: Pharmacokinetics and absolute bioavailability in plasma after single oral or intravenous administration (Example 1)
Settings: both, domestic short hair (HsdCpb: CADS), plasma, po, 1 mg/kg, absolute bioavailability, point estimate, for AUC 0→t; oral vs i.v. 1 mg/kg
assay-metric: bioavailability (%)

INSERT INTO assay_data (molecule, assay_metric, recorded_result) VALUES
  ('CCCc1nc2c(C)cc(-c3nc4ccccc4n3C)cc2n1Cc1ccc(-c2ccccc2C(=O)O)cc1 [telmisartan]', 'bioavailability', 31.6);

====

Assay: Pharmacokinetics and absolute bioavailability in plasma after single oral or intravenous administration (Example 1)
Conditions: both, domestic short hair (HsdCpb: CADS), plasma, iv, 1 mg/kg, AUC 0 → ∞, i.v., single dose 1 mg/kg, mean; first AUC line (r5)
assay-metric: AUC(0-inf) (ng·h/mL)

INSERT INTO measurements (chemical_structure, assay_metric, recorded_result) VALUES
  ('CCCc1nc2c(C)cc(-c3nc4ccccc4n3C)cc2n1Cc1ccc(-c2ccccc2C(=O)O)cc1', 'AUC(0-inf)', 385);

====

Assay: Pharmacokinetics and absolute bioavailability in plasma after single oral or intravenous administration (Example 1)
Settings: both, domestic short hair (HsdCpb: CADS), plasma, iv, 1 mg/kg, t ½, i.v., single dose 1 mg/kg, mean
assay-metric: half-life (h)

INSERT INTO results (chemical_structure, recorded_result) VALUES
  ('CCCc1nc2c(C)cc(-c3nc4ccccc4n3C)cc2n1Cc1ccc(-c2ccccc2C(=O)O)cc1', 2.25);

====

Test: Pharmacokinetics and absolute bioavailability in plasma after single oral or intravenous administration (Example 1)
Conditions: both, domestic short hair (HsdCpb: CADS), plasma, po, 1 mg/kg
assay-metric: MRT (h)

INSERT INTO results (chemical_structure, assay_metric, recorded_result) VALUES
  ('CCCc1nc2c(C)cc(-c3nc4ccccc4n3C)cc2n1Cc1ccc(-c2ccccc2C(=O)O)cc1', 'MRT', 1.97);

====

Test: Pharmacokinetics and absolute bioavailability in plasma after single oral or intravenous administration (Example 1)
Conditions: both, domestic short hair (HsdCpb: CADS), plasma, iv, 1 mg/kg, AUC 0 → ∞, i.v., single dose 1 mg/kg, mean; second AUC line (r7)
assay-metric: AUC(0-inf) (µg·h/mL)

INSERT INTO measurements (chemical_structure, assay_metric, unit, recorded_result) VALUES
  ('CCCc1nc2c(C)cc(-c3nc4ccccc4n3C)cc2n1Cc1ccc(-c2ccccc2C(=O)O)cc1', 'AUC(0-inf)', 'µg·h/mL', 0.376);
